Target: RSV N-RNA complex (Human respiratory syncytial virus A)
Construct: Full-length N was produced by co-expression with the C-terminal domain of RSV P protein in E. coli BL21(DE3); made in house; host or cells: E. coli BL21(DE3), co-transformed with pET-N and pGEX-P(161–241)
Sequence (P03418 whole entry, looked up, the tested form may be a part, one chain of several): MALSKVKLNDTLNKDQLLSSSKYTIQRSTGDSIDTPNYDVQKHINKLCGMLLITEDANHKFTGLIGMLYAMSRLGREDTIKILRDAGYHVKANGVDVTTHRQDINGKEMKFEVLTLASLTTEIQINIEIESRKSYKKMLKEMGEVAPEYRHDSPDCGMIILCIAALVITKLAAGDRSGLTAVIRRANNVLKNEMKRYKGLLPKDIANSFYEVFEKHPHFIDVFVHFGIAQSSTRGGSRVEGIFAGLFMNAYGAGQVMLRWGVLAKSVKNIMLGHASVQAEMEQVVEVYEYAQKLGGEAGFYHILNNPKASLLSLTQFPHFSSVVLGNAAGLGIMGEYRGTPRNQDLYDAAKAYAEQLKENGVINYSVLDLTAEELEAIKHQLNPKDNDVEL
Assay: Fluorescence polarization inhibition of N-RNA binding to fluorescent probes
Conditions: fluorescent probe fluorescein ethyl ester 3 200 nM, 20 µM N-RNA; read-out: M76 IC50
Measurement type: IC50 (µM)
Numbers only; they are read as µM.

[ask] Entry under review: "O=C(O)c1cc(C(=O)O)n(Cc2ccc(Cl)cc2Cl)n1" . Reported IC50?
[reply] 65
